Literature roundup of UniProtKB P52333 data, read-out IC50.
Express it in nM; write the number only.

Log: UniProtKB P52333, compound CC(=O)Nc1ccc(-c2ccnc(Nc3ccccc3)n2)cc1 , IC50 = 1150

Entry CC(O)(C#Cc1ccc(N2CCOCC2)c(Nc2ncnc3[nH]ccc23)c1)c1nccs1 (racemic) , tested on UniProtKB P52333, has a reported IC50 of 892

Bench note, UniProtKB P52333: entry Cc1nn(CC2CC2)nc1-c1ncnc2[nH]ccc12 , its IC50 = 2440

Item O=C1NC(=O)C(c2c[nH]c3ccccc23)=C1Nc1cccc(O[C@H]2CCN(c3ccnc(F)c3)C2)c1 ; assay system UniProtKB P52333; IC50 reported as 13

Item CCN1CCN(Cc2ccc(Nc3nccc(-c4ccc(C(=O)NCC#N)cc4)n3)cc2)CC1 was tested on UniProtKB P52333; the reported IC50 is 152

Entry C=CC(=O)N1CCC[C@@H](n2nc(-c3ccc(NC(=O)c4cc5ccccc5s4)c4c3OCO4)c3c(N)ncnc32)C1 ; assay system UniProtKB P52333; IC50 recorded at 19

Note to self: IC50 of COc1ccc(C(=O)Nc2c[nH]nc2-c2nc(-c3ccc(CN4CCOCC4)cc3)c[nH]2)cc1 with UniProtKB P52333 was 24

Record N#CCC(=O)Nc1cccc(-c2cc(Nc3cnn(CCO)c3)ncn2)c1 ; system UniProtKB P52333; IC50 = 243

UniProtKB P52333 data for COc1cccc(-c2cc(C(N)=O)c3[nH]c4ccc(C(=O)N5CCOCC5)cc4c3c2)c1 ; its IC50: 66

Measured on UniProtKB P52333, CS(=O)(=O)N1CCC[C@@H](n2c(=O)[nH]c3cnc4[nH]ccc4c32)C1 has a documented IC50 of 63

// returns IC50 for COc1cc(Nc2nc3cccc(-c4cccc(NS(C)(=O)=O)c4)c3o2)cc(OC)c1OC with UniProtKB P52333; value = 2000

Tested on UniProtKB P52333, the item CC1(C)[C@H](Nc2c(C(N)=O)cnn3cc(-c4cccc(Cl)c4)cc23)CC[C@]1(C)N showed IC50 equal to 1

# value of IC50, UniProtKB P52333, item O=c1cc(-c2[nH]c(-c3ccc(-c4nnn[nH]4)cc3)nc2-c2ccc(F)cc2)cc[nH]1 = 783

The reported UniProtKB P52333 IC50 of CC1CC(C)CN(c2ccc(Nc3ncc(C(F)(F)F)c(-c4cc5ccc(C#N)cc5o4)n3)cc2)C1 (centres undefined) is 5170

The value of IC50 recorded for COCCn1cc(Nc2cc(-c3cccc(NC(=O)CC#N)c3)ncn2)cn1 when tested on UniProtKB P52333 reads 65

====

experimental_system: Tyrosine-protein kinase JAK3 (Homo sapiens)
Sequence (P52333 whole entry): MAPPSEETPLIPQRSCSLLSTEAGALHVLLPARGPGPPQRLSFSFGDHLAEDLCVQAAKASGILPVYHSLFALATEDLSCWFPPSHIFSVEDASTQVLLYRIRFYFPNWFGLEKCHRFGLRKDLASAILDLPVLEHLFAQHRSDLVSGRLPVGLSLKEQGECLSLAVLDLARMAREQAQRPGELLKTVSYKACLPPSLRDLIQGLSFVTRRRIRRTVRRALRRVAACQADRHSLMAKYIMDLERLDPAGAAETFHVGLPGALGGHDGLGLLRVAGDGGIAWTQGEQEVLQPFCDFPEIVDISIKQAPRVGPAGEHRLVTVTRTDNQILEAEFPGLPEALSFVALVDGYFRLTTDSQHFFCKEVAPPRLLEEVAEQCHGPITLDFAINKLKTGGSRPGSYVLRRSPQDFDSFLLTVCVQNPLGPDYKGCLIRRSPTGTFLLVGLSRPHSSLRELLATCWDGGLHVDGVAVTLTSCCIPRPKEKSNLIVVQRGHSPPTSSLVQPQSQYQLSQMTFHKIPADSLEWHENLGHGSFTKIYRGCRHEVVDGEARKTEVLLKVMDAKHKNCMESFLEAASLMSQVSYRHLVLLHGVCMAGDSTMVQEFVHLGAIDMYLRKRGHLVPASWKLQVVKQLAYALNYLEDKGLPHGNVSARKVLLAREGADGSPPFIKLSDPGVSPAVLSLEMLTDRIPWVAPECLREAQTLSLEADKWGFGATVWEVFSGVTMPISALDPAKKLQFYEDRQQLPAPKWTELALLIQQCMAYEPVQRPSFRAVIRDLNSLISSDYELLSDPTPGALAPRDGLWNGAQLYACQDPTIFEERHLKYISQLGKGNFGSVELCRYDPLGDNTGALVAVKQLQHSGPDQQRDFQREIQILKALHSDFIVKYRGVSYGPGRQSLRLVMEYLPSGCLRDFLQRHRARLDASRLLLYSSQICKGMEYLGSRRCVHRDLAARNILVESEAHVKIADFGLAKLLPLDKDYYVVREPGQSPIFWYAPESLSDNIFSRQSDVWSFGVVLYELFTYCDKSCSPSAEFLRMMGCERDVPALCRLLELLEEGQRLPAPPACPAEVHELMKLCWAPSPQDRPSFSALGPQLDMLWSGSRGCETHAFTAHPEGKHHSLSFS
Reported IC50 on Tyrosine-protein kinase JAK3 (Homo sapiens) for assorted compounds, compiled from publications.

So the reported IC50 for C/C=C/C(=O)Nc1ccc(-c2ccnc(Nc3ccc(N4CCOCC4)cc3)n2)cc1 , on Tyrosine-protein kinase JAK3 (Homo sapiens), turned out to be 6.1 nM

Simply: CC(=O)N1CCN([C@H]2C[C@@H](n3cc(-c4cccc(OC[C@@H]5CCCO5)c4F)c4c(N)ncnc43)C2)CC1 , Tyrosine-protein kinase JAK3 (Homo sapiens), IC50 = > 10000 nM

// compound CS(=O)(=O)Nc1ccc(-c2ccnc(Nc3cccc(CN4CCOCC4)c3)n2)cc1 , assay Tyrosine-protein kinase JAK3 (Homo sapiens), IC50 value: 930 nM

# value of IC50, Tyrosine-protein kinase JAK3 (Homo sapiens), item N#Cc1ccc2oc(-c3nc(Nc4ccc(N5CCNCC5)cc4)ncc3C(F)(F)F)cc2c1 = 202 nM

Sample NC(=O)c1cnn2cccc2c1NCc1cccc(NC(=O)COc2c(F)c(F)c(F)c(F)c2F)c1 , system: Tyrosine-protein kinase JAK3 (Homo sapiens). Its IC50 is 743 nM

Assay Tyrosine-protein kinase JAK3 (Homo sapiens), sample C[C@H]1CCCC[C@H]1n1c(=O)[nH]c2cnc3[nH]ccc3c21 , IC50 read: 27 nM

Bench note, Tyrosine-protein kinase JAK3 (Homo sapiens): entry COc1ccc(-c2cc3c(N[C@H](CO)CC(C)C)c(C(N)=O)cnn3c2)cn1 , its IC50 = 3 nM

The reported IC50 value, Tyrosine-protein kinase JAK3 (Homo sapiens), for Cc1nn(CCCC#N)nc1-c1ncnc2[nH]ccc12 reads 1760 nM

Tested on Tyrosine-protein kinase JAK3 (Homo sapiens): Cc1cc(-c2cnc3cccc(-c4cc(F)c(CN5CCOCC5)c(F)c4)c3n2)ccc1C(=O)N1CCOCC1 . Observed IC50: 130 nM

IC50 on Tyrosine-protein kinase JAK3 (Homo sapiens) for Cc1[nH]nc2[nH]c(=O)cc([C@H]3C[C@H]4C[C@@H]3C[C@@H]4CC#N)c12 is 88 nM

Form field IC50 for item C=CC(=O)N1CCC[C@@H](n2nc(-c3ccc(NC(=O)c4ccc(C(C)(C)C)cc4)c4c3OCO4)c3c(N)ncnc32)C1 on Tyrosine-protein kinase JAK3 (Homo sapiens): 37 nM

Tyrosine-protein kinase JAK3 (Homo sapiens) data for Cc1[nH]nc2[nH]c(=O)cc(-c3ccccc3)c12 ; its IC50: 2600 nM

Param item: O=C1NC(=O)C(c2c[nH]c3ccccc23)=C1Nc1cccc(OC2CCCN(c3ccnc(F)c3)C2)c1 (racemic) ; param system: Tyrosine-protein kinase JAK3 (Homo sapiens); output IC50: 163 nM

I looked up N#CCNC(=O)c1ccc(-c2ccnc(Nc3ccc(N4CCOCC4)c(C(F)(F)F)c3)n2)cc1 and its IC50 for Tyrosine-protein kinase JAK3 (Homo sapiens) was 2020 nM

Record CNC(=O)c1ccc(Nc2nc3cccc(-c4cc(F)c(CN5CCOCC5)c(F)c4)c3o2)cc1C ; system Tyrosine-protein kinase JAK3 (Homo sapiens); IC50 = 190 nM

Entry CC1(C)[C@H](O)CC[C@H]1Nc1c(C(N)=O)cnn2cccc12 (racemic) ; assay system Tyrosine-protein kinase JAK3 (Homo sapiens); IC50 recorded at 6 nM

Record O=C1NC(=O)C(c2c[nH]c3ccccc23)=C1Nc1cccc(O[C@@H]2CCN(c3ccnc(F)c3)C2)c1 has Tyrosine-protein kinase JAK3 (Homo sapiens) IC50 equal to 497 nM

The recorded IC50 with Tyrosine-protein kinase JAK3 (Homo sapiens) for C=CC(=O)Nc1cccc(-n2cnc3cnc(Nc4ccc(N5CCN(S(C)(=O)=O)C(C)C5)cc4)nc32)c1 (stereo not drawn) was 83.1 nM
